# System: Platelet
# Method: Inhibition of thrombin-induced rabbit platelet aggregation compound pre-incubated in rabbit liver microsomal suspension
# Format: functional, microsomes, Microsome
# Condition Parameters: Oryctolagus cuniculus
The entries below come with measured IC50 values attached.
Endpoint Name: IC50 (nM)

> print(dat)
                           molecular.string    system  endpoint.name  observed.value
1  COC(=O)/C=C/c1ccc(OC(=O)CCN(C(=O)c2ccc3c(c2)nc(CNc2ccc(/C(N)=N\C(=O)OC(C)(C)C)cc2)n3C)c2ccccn2)c(OC)c1  Platelet           IC50             607
2  CCCCCOC(=O)/N=C(/N)c1ccc(NCc2nc3cc(C(=O)N(CCC(=O)Oc4ccc(/C=C/C(=O)OC)cc4OC)c4ccccn4)ccc3n2C)cc1  Platelet           IC50             206
3  COC(=O)/C=C/c1ccc(OC(=O)CCN(C(=O)c2ccc3c(c2)nc(CNc2ccc(/C(N)=N\C(=O)OC(C)C)cc2)n3C)c2ccccn2)c(OC)c1  Platelet           IC50             784
